Biological target: BlaC (Mycobacterium tuberculosis)
Construct: made in house; host or cells: E. coli
Sequence (P9WKD3 35-307): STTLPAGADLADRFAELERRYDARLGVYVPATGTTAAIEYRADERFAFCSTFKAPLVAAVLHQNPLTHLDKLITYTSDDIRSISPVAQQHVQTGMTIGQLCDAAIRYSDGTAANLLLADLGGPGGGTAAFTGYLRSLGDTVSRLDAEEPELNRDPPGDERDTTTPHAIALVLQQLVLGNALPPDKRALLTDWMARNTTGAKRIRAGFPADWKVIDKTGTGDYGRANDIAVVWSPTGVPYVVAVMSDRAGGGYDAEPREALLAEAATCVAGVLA
Assay: BlaC fluorogenic inhibition assay with FC5 (dose-response)
Type: biochemical
Details: Table S3 tool compounds; 10 min incubation; 2.5 nM BlaC, 2.5 µM FC5; n=4; read-out: pIC50 BlaC (mean ± SD) (converted)
Quantity Name: IC50

**Query** Query the reported IC50 for BlaC (Mycobacterium tuberculosis); item: C[C@@H](O)[C@H]1C(=O)N2C(C(=O)O)=C(S[C@@H]3CN[C@H](CNS(N)(=O)=O)C3)[C@H](C)[C@H]12 [Doripenem, reference compound]
**Result** 0.0417 µM

**Query** Query the reported IC50 for BlaC (Mycobacterium tuberculosis); item: Cc1onc(-c2ccccc2)c1C(=O)N[C@@H]1C(=O)N2[C@@H]1SC(C)(C)[C@@H]2C(=O)O [Oxacillin, reference compound]
**Result** 0.158 µM

**Query** Query the reported IC50 for BlaC (Mycobacterium tuberculosis); item: O=[Se](O)c1ccccc1 [Benzeneseleninic acid, reference compound]
**Result** > 100 µM

**Query** Query the reported IC50 for BlaC (Mycobacterium tuberculosis); item: "O=C(NC1CCNCC1)[C@@H]1CC[C@@H]2CN1C(=O)N2OS(=O)(=O)O"
**Result** 33.1 µM

**Query** Query the reported IC50 for BlaC (Mycobacterium tuberculosis); item: "CC(C)(O/N=C(\C(=O)N[C@@H]1C(=O)N2C(C(=O)[O-])=C(C[n+]3ccccc3)CS[C@H]12)c1csc(N)n1)C(=O)O"
**Result** 39.8 µM

**Query** Query the reported IC50 for BlaC (Mycobacterium tuberculosis); item: CC(=N)N1CC[C@H](SC2=C(C(=O)O)N3C(=O)[C@H]([C@@H](C)O)[C@H]3C2)C1 [Panipenem, reference compound]
**Result** 0.166 µM

**Query** Query the reported IC50 for BlaC (Mycobacterium tuberculosis); item: CC1(C)S[C@@H]2[C@H](NC(=O)C(C(=O)O)c3ccccc3)C(=O)N2[C@H]1C(=O)O (stereo partly shown) [Carbenicillin, reference compound]
**Result** > 100 µM

* * *

Target: LdtMt2 (Mycobacterium tuberculosis)
Sequence (I6Y9J2 56-408): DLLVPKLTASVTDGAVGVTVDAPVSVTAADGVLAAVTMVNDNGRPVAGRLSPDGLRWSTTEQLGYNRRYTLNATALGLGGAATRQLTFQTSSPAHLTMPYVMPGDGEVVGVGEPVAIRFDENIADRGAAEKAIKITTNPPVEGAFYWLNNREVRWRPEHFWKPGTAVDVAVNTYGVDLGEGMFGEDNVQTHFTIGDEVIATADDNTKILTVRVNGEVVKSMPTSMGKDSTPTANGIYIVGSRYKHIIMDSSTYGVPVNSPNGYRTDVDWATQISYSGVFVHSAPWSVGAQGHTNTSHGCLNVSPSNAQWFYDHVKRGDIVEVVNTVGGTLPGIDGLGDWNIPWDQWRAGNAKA
Experiment: biochemical
Format: biochemical
Set-up: made in house; host or cells: E. coli
Conditions: pIC50 LdtMt2
Quantity Name: IC50 (µM)
Express it in µM; write the number only.

**Query** Query the reported IC50 for LdtMt2 (Mycobacterium tuberculosis); item: CN(C)c1cc[n+](C#N)cc1 [Compound 43, reference compound]
**Result** 5.01

* * *

Assignment: determine reported kinact/KI for the given compounds.
Biological target: LdtMt2 (Mycobacterium tuberculosis)
Assay: Rate constant of covalent target inactivation (kinact/KI), endpoint competition assay with probe 2
Format: biochemical
Design: made in house; host or cells: E. coli
Settings: 100 nM LdtMt2, 10 µM probe 2, 3 h incubation; n=4
Express it in M⁻¹ s⁻¹; write the number only.

**Query** Item under review: N#Cn1c(-c2ccc(OC3CCOCC3)cc2)nc2ccccc21 [Compound 32] . Reported kinact/KI?
**Result** 86.3

**Query** Item under review: N#Cn1c(-c2ccncc2)nc2ccc(-c3ccncc3)cc21 [Compound 34] . Reported kinact/KI?
**Result** 68.4

**Query** Item under review: N#Cn1c(-c2ccncc2)nc2ccc(-c3ccco3)cc21 [Compound 33] . Reported kinact/KI?
**Result** 71.8

**Query** Item under review: Cc1ccc(C=CC(=O)Nc2ccccc2C(N)=O)o1 [Compound 11] . Reported kinact/KI?
**Result** 172

**Query** Item under review: O=C(OCN1C(=O)C=CC1=O)c1ccccc1 [Compound 7] . Reported kinact/KI?
**Result** 156

**Query** Item under review: N#Cn1c(-c2ccc3nccnc3c2)nc2ccccc21 [Compound 26] . Reported kinact/KI?
**Result** 65.0

**Query** Item under review: N#Cn1c(-c2ccnnc2)nc2ccccc21 [Compound 24] . Reported kinact/KI?
**Result** 158

**Query** Item under review: CC(C)(C)OC(=O)Nc1ccc(N2C(=O)C=CC2=O)cc1 [Compound 6] . Reported kinact/KI?
**Result** 127

**Query** Item under review: Cc1nc(-c2ccc(-c3nc4ccccc4n3C#N)cc2)cs1 [Compound 30] . Reported kinact/KI?
**Result** 236

**Query** Item under review: N#Cn1c(-c2cc(F)cc(C(F)(F)F)c2)nc2ccccc21 [Compound 23] . Reported kinact/KI?
**Result** 265

**Query** Item under review: O=C1C=CC(=O)N1c1ccc(Oc2ccccc2)c(Cl)c1 [Compound 5] . Reported kinact/KI?
**Result** 116

**Query** Item under review: Cc1ccc(C=CC(=O)Nc2ccc(S(N)(=O)=O)cc2)o1 [Compound 9] . Reported kinact/KI?
**Result** 90.7

**Query** Item under review: O=C(NC(Cc1ccccc1)C(=O)CCl)c1cc(Cc2ccccc2)on1 (stereo not drawn) [Compound 1] . Reported kinact/KI?
**Result** 1152

**Query** Item under review: N#CN1CCCN1C(=O)OCc1ccc(Cl)c(Cl)c1 [Compound 37] . Reported kinact/KI?
**Result** 8.44

**Query** Item under review: N#Cn1c(-c2ccc(-c3nccs3)cc2)nc2ccccc21 [Compound 29] . Reported kinact/KI?
**Result** 1164

**Query** Item under review: COc1ccc(COC(=O)C2N3C(=O)C(Br)C3S(=O)(=O)C2(C)C)cc1 (stereo not drawn) [Compound 21] . Reported kinact/KI?
**Result** 53.2

**Query** Item under review: N#Cn1c(-c2cncnc2)nc2ccccc21 [Compound 25] . Reported kinact/KI?
**Result** 77.5

**Query** Item under review: N#Cn1c(-c2ccncc2)nc2ccc(C(=O)c3ccccc3)cc21 [Compound 36] . Reported kinact/KI?
**Result** 51.0
